- System: 3rd-instar larvae of Yponomeuta evonymallus (Linnaeus)
- RUN DESCRIPTION: Synergism screening (Bliss) of I-72 + pyrethroid insecticides, Example 37, Table 37
- Format: in vivo
- CONDITION INFO: single pesticide, concentration 5 mg/L; leaf dipping; 72 hours
REPORTED ENDPOINT: Measured mortality rate (%)

COMPOUND: CC(C)[C@H](C(=O)O[C@H](C#N)c1cccc(Oc2ccccc2)c1)c1ccc(Cl)cc1 [Esfenvalerate]
MEASURED TARGET: 3rd-instar larvae of Yponomeuta evonymallus (Linnaeus)
OBSERVED MEASUREMENT: 40.0

COMPOUND: CC1(C)C(C=C(Cl)Cl)C1C(=O)OC(C#N)c1ccc(F)c(Oc2ccccc2)c1 (stereo not drawn) [Cyfluthrin]
MEASURED TARGET: 3rd-instar larvae of Yponomeuta evonymallus (Linnaeus)
OBSERVED MEASUREMENT: 48.4

COMPOUND: CN(C(=O)c1ccc2c(c1)OC(F)(F)O2)c1cccc(C(=O)Nc2c(Br)cc(C(F)(C(F)(F)F)C(F)(F)F)cc2OC(F)F)c1F [Compound I-72]
MEASURED TARGET: 3rd-instar larvae of Yponomeuta evonymallus (Linnaeus)
OBSERVED MEASUREMENT: 57.1

COMPOUND: CC1(C)C(C=C(Cl)Cl)C1C(=O)OC(C#N)c1cccc(Oc2ccccc2)c1 (stereo not drawn) [Alpha-cypermethrin]
MEASURED TARGET: 3rd-instar larvae of Yponomeuta evonymallus (Linnaeus)
OBSERVED MEASUREMENT: 43.8

COMPOUND: CC1(C)[C@H](C=C(Cl)Cl)[C@H]1C(=O)O[C@H](C#N)c1cccc(Oc2ccccc2)c1 [Theta-cypermethrin]
MEASURED TARGET: 3rd-instar larvae of Yponomeuta evonymallus (Linnaeus)
OBSERVED MEASUREMENT: 46.4

COMPOUND: CC1(C)C(C(=O)OC(C#N)c2cccc(Oc3ccccc3)c2)C1(C)C (stereo not drawn) [Fenpropathrin]
MEASURED TARGET: 3rd-instar larvae of Yponomeuta evonymallus (Linnaeus)
OBSERVED MEASUREMENT: 40.7

COMPOUND: CC1(C)C(C=C(Cl)Cl)C1C(=O)OC(C#N)c1ccc(F)c(Oc2ccccc2)c1 (stereo not drawn) [Beta-cyfluthrin]
MEASURED TARGET: 3rd-instar larvae of Yponomeuta evonymallus (Linnaeus)
OBSERVED MEASUREMENT: 51.6

COMPOUND: CC1(C)[C@H](C(=O)O[C@H](C#N)c2cccc(Oc3ccccc3)c2)[C@@H]1/C=C(\Cl)C(F)(F)F [Gamma-cyhalothrin]
MEASURED TARGET: 3rd-instar larvae of Yponomeuta evonymallus (Linnaeus)
OBSERVED MEASUREMENT: 48.3

COMPOUND: CC1(C)[C@H](C(=O)O[C@H](C#N)c2cccc(Oc3ccccc3)c2)[C@@H]1/C=C(\Cl)C(F)(F)F (racemic) [Lambda-cyhalothrin]
MEASURED TARGET: 3rd-instar larvae of Yponomeuta evonymallus (Linnaeus)
OBSERVED MEASUREMENT: 53.3
